- assayed target: T1, human PTH-1 receptor (human, UniProt Q03431 27-593)
- T1 sequence (looked up): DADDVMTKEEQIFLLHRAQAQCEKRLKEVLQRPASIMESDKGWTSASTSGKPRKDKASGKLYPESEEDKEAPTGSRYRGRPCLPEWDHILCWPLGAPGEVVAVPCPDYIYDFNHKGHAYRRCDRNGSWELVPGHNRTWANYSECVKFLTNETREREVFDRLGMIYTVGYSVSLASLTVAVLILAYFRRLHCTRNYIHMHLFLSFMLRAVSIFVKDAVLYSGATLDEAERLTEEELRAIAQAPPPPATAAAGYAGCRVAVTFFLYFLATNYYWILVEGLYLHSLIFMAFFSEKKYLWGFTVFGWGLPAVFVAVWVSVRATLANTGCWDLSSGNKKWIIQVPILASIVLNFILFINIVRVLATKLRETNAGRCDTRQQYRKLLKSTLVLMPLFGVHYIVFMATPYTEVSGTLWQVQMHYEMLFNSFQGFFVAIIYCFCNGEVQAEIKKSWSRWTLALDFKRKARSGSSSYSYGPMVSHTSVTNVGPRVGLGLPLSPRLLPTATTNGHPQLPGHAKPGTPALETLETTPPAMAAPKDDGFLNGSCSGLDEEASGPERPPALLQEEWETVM
- measurement description: cell-based or functional assay
Non-standard residues stand in square brackets, D forms with d. No end group written: not given here. Nle = CCCC[C@H](N)C(=O)O

# binder, result unit, cAMP Emax, SAOS-2 cells
rows = [
    ("AVSEIQL[Nle]HNLGKHLASVER[Nle]QWLRKKLQDVHNY-NH2 [[Nle^8,21,Tyr^34]-rPTH(1-34)NH2]", "picomole/well", 272),
    ("AVAEIQLMHARAKH-NH2 [[A3, A10, R11, A12]rPTH(1-14)]", "picomole/well", 331),
    ("AVAEIQLMHARAKHLNSMERVEWLRKKLQDVHNY-NH2 (also called peptide #7; #7) [[A1, A3, A10, R11, A12, Y34]hPTH(1-34)]", "picomole/well", 272),
    ("AVAEIQLMHAR-NH2 [[A3, A10, R11]rPTH(1-11)]", "picomole/well", 235),
    ("SVSEIQLMHNLGKHLNSMERVEWLRKKLQDVHNY-NH2 [[Tyr^34]human (h)PTH(1-34)NH2]", "picomole/well", 307),
]

The measured values listed here are drawn from patent US7022815.
